meta.source: paper PMC6271545

# ASSAY_OVERVIEW: Pharmacokinetics of sinomenine in rat plasma after oral administration of sinomenine monomer and Sinomenium acutum extract
# MEASUREMENT_PARAMETERS: male, Wistar, 60 mg/kg
MEASURED_ENDPOINT: MRT inf (h)
Give bare numbers, in h.

Looking up COC1=C[C@H]2[C@H]3Cc4ccc(OC)c(O)c4[C@@]2(CCN3C)CC1=O [Sinomenine] , I found its MRT inf recorded as 8.8

###

# ASSAY_OVERVIEW: Pharmacokinetics of sinomenine in rat plasma after oral administration of sinomenine monomer and Sinomenium acutum extract
# MEASUREMENT_PARAMETERS: male, Wistar, 30 mg/kg
MEASURED_ENDPOINT: CL/F (mL/min/kg)
One number for each entry, in mL/min/kg.

Entry `COC1=C[C@H]2[C@H]3Cc4ccc(OC)c(O)c4[C@@]2(CCN3C)CC1=O` ; CL/F = 15.6

###

# ASSAY_OVERVIEW: Pharmacokinetics of sinomenine in rat plasma after oral administration of sinomenine monomer and Sinomenium acutum extract
# MEASUREMENT_PARAMETERS: male, Wistar, 60 mg/kg
MEASURED_ENDPOINT: AUC(0-inf) (ng·h/mL)
Give bare numbers, in ng·h/mL.

Memo: `COC1=C[C@H]2[C@H]3Cc4ccc(OC)c(O)c4[C@@]2(CCN3C)CC1=O` , reported AUC(0-inf): 94000

###

# ASSAY_OVERVIEW: Pharmacokinetics of sinomenine in rat plasma after oral administration of sinomenine monomer and Sinomenium acutum extract
# MEASUREMENT_PARAMETERS: male, Wistar, 60 mg/kg
MEASURED_ENDPOINT: CL/F (mL/min/kg)
One number for each entry, in mL/min/kg.

The recorded CL/F for entry COC1=C[C@H]2[C@H]3Cc4ccc(OC)c(O)c4[C@@]2(CCN3C)CC1=O [Sinomenine] equals 10.8

###

# ASSAY_OVERVIEW: Pharmacokinetics of sinomenine in rat plasma after oral administration of sinomenine monomer and Sinomenium acutum extract
# MEASUREMENT_PARAMETERS: male, Wistar, 30 mg/kg
MEASURED_ENDPOINT: AUC(0-t) (ng·h/mL)
Give bare numbers, in ng·h/mL.

Form field AUC(0-t), entry `COC1=C[C@H]2[C@H]3Cc4ccc(OC)c(O)c4[C@@]2(CCN3C)CC1=O` : 29200

###

# ASSAY_OVERVIEW: Pharmacokinetics of sinomenine in rat plasma after oral administration of sinomenine monomer and Sinomenium acutum extract
# MEASUREMENT_PARAMETERS: male, Wistar, 30 mg/kg
MEASURED_ENDPOINT: Tmax (h)
One number for each entry, in h.

Record COC1=C[C@H]2[C@H]3Cc4ccc(OC)c(O)c4[C@@]2(CCN3C)CC1=O [Sinomenine] . Reported Tmax: 1.08

###

# ASSAY_OVERVIEW: Pharmacokinetics of sinomenine in rat plasma after oral administration of sinomenine monomer and Sinomenium acutum extract
# MEASUREMENT_PARAMETERS: male, Wistar, 60 mg/kg
MEASURED_ENDPOINT: AUC(0-t) (ng·h/mL)
Give bare numbers, in ng·h/mL.

Per the record, `COC1=C[C@H]2[C@H]3Cc4ccc(OC)c(O)c4[C@@]2(CCN3C)CC1=O` has AUC(0-t) of 78900

###

# ASSAY_OVERVIEW: Pharmacokinetics of sinomenine in rat plasma after oral administration of sinomenine monomer and Sinomenium acutum extract
# MEASUREMENT_PARAMETERS: male, Wistar, 60 mg/kg
MEASURED_ENDPOINT: Tmax
Quick note: number first, unit second.

Value of measured Tmax for the entry `COC1=C[C@H]2[C@H]3Cc4ccc(OC)c(O)c4[C@@]2(CCN3C)CC1=O` : 1.5 h
